Every entry's value here was drawn from patent US20260285998.

assay.target: T1, human BCMA (cell surface) (human)
T1 chain: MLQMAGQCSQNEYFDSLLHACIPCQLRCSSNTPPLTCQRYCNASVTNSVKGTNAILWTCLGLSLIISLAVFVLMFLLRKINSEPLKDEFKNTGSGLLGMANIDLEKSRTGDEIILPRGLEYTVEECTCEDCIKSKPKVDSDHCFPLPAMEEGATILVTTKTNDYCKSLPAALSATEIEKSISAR
protocol.summary: FACS
# pEC50 listing for each entry below
pEC50 field: float, defined as -log10 of concentration (mol/L).

Would you please look over these solved cases?
binder: P1AG7400 BCMA arm (antibody, V domains shown) VH: QVQLVQSGAEVKKPGASVKVSCKASGYTFTNYWMHWVRQAPGQGLEWMGIIHPNSGSTNYNEKFQGRVTMTRDTSTSTVYMELSSLRSEDTAVYYCARGIYDYPFAYWGQGTLVTVSS VL: DIQMTQSPSSLSASVGDRVTITCRASESVSIHGTHLMHWYQQKPGKAPKLLIYAASSLQSGVPSRFSGSGSETDFTLTISSLQPEDFATYYCQQSIEDPYTFGGGTKVEIK
numeric.value: 7.38
//
binder: P1AG7422 BCMA arm (antibody, V domains shown) VH: EVQLVESGGGLVKPGGSLRLSCAASGFTFSNAWMDWVRQAPGKGLEWIAQITAKSNNYATYYAAPVKGRFTISRDDSKNTLYLQMNSLKTEDTAVYYCTDDGYHWGQGTLVTVSS VL: AIQMTQSPSSLSASVGDRVTITCRASEDIRNGLAWYQQKPGKAPKLLIYNANSLHTGVPSRFSGSGSGTDFTLTISSLQPEDFATYYCEDTSKYPYTFGQGTKLEIK
numeric.value: 7.97
//
binder: P1AG7409 BCMA arm (antibody, V domains shown) VH: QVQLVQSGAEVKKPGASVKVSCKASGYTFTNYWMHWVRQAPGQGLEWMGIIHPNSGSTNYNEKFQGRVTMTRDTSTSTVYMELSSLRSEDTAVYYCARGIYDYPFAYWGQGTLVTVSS VL: DIQMTQSPSSLSASVGDRVTITCRASESVSIHGTHLMHWYQQKPGKAPKLLIYAASNLESGVPSRFSGSGSGTDFTLTISSLQPEDFATYYCQQSIEDPYTFGGGTKVEIK
numeric.value: 7.67

// next entry
Quick note, pEC50 for P1AG7397 BCMA arm (antibody, V domains shown) VH: EVQLLESGGGLVQPGGSLRLSCAASGFTFSNAWMDWVRQAPGKGLEWVSQITAKSNNYATYYADSVKGRFTISRDNSKNTLYLQMNSLRAEDTAVYYCTDDGYHWGQGTLVTVSS VL: DIQMTQSPSSLSASVGDRVTITCRASEDIRNGLAWYQQKPGKAPKLLIYNANSLHTGVPSRFSGSGSGTDFTLTISSLQPEDFATYYCEDTSKYPYTFGQGTKLEIK landed at 7.63
